Experiment: Lung distribution study in mouse
Type: in vivo, Balb/C mouse
Conditions: Balb/C, 10 mg/kg po, analyte Example 2 (prodrug), lung
measured.parameter: half-life (h)
State the answer as a number, implicitly in h.

Sure, the documented half-life for CC(C)C(=O)OC[C@H](COc1cccc2c1B(O)O[C@@H]2CN)OC(=O)C(C)C.Cl is 6.42

---

Experiment: Lung distribution study in mouse
Type: in vivo, Balb/C mouse
Settings: Balb/C, 10 mg/kg po, analyte Example 2 (prodrug), plasma
measured.parameter: AUC(0-t) (ng·h/mL)
State the answer as a number, implicitly in ng·h/mL.

Sure, the documented AUC(0-t) for CC(C)C(=O)OC[C@H](COc1cccc2c1B(O)O[C@@H]2CN)OC(=O)C(C)C.Cl is 0.0421

Attribution: patent US20240269155A1
